Where do these numbers come from? They come from patent US20150038673A1.

Target: anti-β1-ECII antibodies in rat sera reacting with both the Cys/Ser and the Ser/Cys mutated cyclopeptides (type2 reaction, n=5) (rat)
Assay: ELISA competition, type2 sera (n=5), linear 25AA Cys/Cys peptide as antigen
Bridge positions count the residues as written; N and C are the ends. Square brackets hold non-standard residues; d marks the D form.
property: blocking capacity (% of blocked versus non-blocked ELISA-reactivity) (%)

Example binders with recorded blocking capacity (% of blocked versus non-blocked ELISA-reactivity):
cyclo(ARAESDEARRCYNDPKCCDFVTNRQ) (also: three Cys (11, 17, 18), disulfide pairing not defined) [3 Cys-containing β1-ECII-25AA Cys/Cys cyclopeptide]: 72
cyclo(ADEARRCYNDPKSCDFVQ) (disulfide 7-14 (inferred)) [β1-ECII-18AA Ser/Cys mutant (Gln-)cyclopeptide (formula X)]: 47
cyclo(ARAESDEARRCYNDPKSCDFVTNRQ) (disulfide 11-18 (inferred)) [β1-ECII-25AA Ser/Cys mutant (Gln-)cyclopeptide (formula XI)]: 37
cyclo(ADEARRCYNDPKCSDFV[dE]) (disulfide 7-13; SMILES CC(C)[C@@H]1NC(=O)[C@H](Cc2ccccc2)NC(=O)[C@H](CC(=O)O)NC(=O)[C@H](CO)NC(=O)[C@@H]2CSSC[C@H](NC(=O)[C@H](CCCNC(=N)N)NC(=O)[C@H](CCCNC(=N)N)NC(=O)[C@H](C)NC(=O)[C@H](CCC(=O)O)NC(=O)[C@H](CC(=O)O)NC(=O)[C@H](C)NC(=O)[C@@H](CCC(=O)O)NC1=O)C(=O)N[C@@H](Cc1ccc(O)cc1)C(=O)N[C@@H](CC(N)=O)C(=O)N[C@@H](CC(=O)O)C(=O)N1CCC[C@H]1C(=O)N[C@@H](CCCCN)C(=O)N2) [β1-ECII-18AA Cys/Ser cyclopeptide mutant with D-Glu ring closure (formula VIII)]: 47

[1] cyclo(ADEARRCYNDPKSCDFV[dE]) (disulfide 7-14 (inferred)) [β1-ECII-18AA Ser/Cys cyclopeptide mutant with D-Glu ring closure (formula XII)]
[2] cyclo(ADEARRCYNDPKCCDFVQ) (also: three Cys (7, 13, 14), disulfide pairing not defined) [3 Cys-containing β1-ECII-18AA Cys/Cys cyclopeptide]
Incoming: Thinking about recorded blocking capacity (% of blocked versus non-blocked ELISA-reactivity) values, which is higher, 1 or 2 ? Kindly give the label for the entry you pick.
Outgoing: 2
